# Tested on: SNB-75 CNS
# assay: NCI-60 one-dose screen, 48 h (100 = growth as untreated, 0 = no growth, -100 = all killed)
# measurement.context: 10 µM
About 83,000 compounds went through this panel and 20% of them were active in at least one assay; those are over-represented in the sample as a whole.
quantity.kind: growth (%)
Give bare numbers, in %.

[
  {
    "compound": "Cc1ccc(-c2nc3ccc(C(=O)N=Nc4c(O)[nH]c5ccc([N+](=O)[O-])cc45)cc3[nH]2)cc1",
    "growth [%]": 78.4
  }
]

// batch mode: one growth value per listed entry
1. COc1ccc(-c2nc(-c3ccccc3)c(-c3ccccc3)n2-c2ccc(S(=O)(=O)Nc3ncccn3)cc2)cc1OC
2. CCN1CCN(Cc2ccc(C(=O)Nc3cccc(-c4cn(-c5ccc6oc(=O)ccc6c5)nn4)c3)cc2C(F)(F)F)CC1
3. O=C(c1ccc(Cl)cc1)C1[C@H](c2ccc(Br)cc2)[C@@H](c2ccccc2)NC12C(=O)Nc1ccc(Cl)cc12 (some centres undefined)

Response line:
1: 88.5; 2: -33.2; 3: -4.86
